These data points were gathered from paper PMC6151788.

# assay_system: Jack bean urease (JBU) (Canavalia ensiformis, UniProt P07374)
# Construct: JBU-type III from Canavalia ensiformis
# Sequence (P07374 whole entry, looked up): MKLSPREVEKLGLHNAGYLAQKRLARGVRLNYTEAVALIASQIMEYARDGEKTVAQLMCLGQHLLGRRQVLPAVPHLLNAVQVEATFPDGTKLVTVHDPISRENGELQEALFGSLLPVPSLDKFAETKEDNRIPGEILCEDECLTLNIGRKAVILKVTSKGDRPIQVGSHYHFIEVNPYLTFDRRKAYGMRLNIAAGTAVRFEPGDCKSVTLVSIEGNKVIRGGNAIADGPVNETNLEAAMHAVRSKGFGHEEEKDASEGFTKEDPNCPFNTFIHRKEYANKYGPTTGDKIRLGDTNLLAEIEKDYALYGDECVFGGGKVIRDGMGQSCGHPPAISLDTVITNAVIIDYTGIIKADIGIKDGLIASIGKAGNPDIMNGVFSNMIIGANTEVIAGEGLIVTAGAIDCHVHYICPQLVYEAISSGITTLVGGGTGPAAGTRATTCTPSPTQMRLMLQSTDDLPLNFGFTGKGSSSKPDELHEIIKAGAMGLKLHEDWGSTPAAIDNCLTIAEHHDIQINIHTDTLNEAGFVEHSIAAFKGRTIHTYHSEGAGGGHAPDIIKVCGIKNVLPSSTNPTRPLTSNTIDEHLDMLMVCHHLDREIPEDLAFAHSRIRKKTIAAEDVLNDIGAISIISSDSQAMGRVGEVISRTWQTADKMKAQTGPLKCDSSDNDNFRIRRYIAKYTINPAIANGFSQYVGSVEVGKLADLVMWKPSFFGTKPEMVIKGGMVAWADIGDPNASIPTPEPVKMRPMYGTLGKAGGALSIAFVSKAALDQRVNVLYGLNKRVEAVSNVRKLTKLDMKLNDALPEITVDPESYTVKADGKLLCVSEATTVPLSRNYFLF
# assay_info: ESI-MS urea depletion assay with purchased jack bean urease; standard inhibitor
# Assay type: biochemical
observed_property: IC50 (µM)

{"compound": "CC(=O)NO [AHA, acetohydroxamic acid]", "observed_property": "IC50", "quantitative_readout": 3.2}
